Reported EC50 values for the following compounds.
system: CCRF-CEM; experiment: Effective concentration required to inhibit the replication of HIV-1 by 50% in CEM/TK cells; assay type: functional, cell-based; conditions: Homo sapiens

Cc1cn([C@H]2C[C@H](N=[N+]=[N-])[C@@H](COP(=O)(OCCSC(=O)C(C)(C)C)Oc3ccc(C[C@H](N)C(N)=O)cc3)O2)c(=O)[nH]c1=O (some centres undefined)    4 µM
CC(=O)N(C(=O)OC(C)(C)C)[C@@H](Cc1ccc(OP(=O)(OCCSC(=O)C(C)(C)C)OC[C@H]2O[C@@H](n3cc(C)c(=O)[nH]c3=O)C[C@@H]2N=[N+]=[N-])cc1)C(=O)N(C(=O)OC(C)(C)C)C(=O)OC(C)(C)C (some centres undefined)    6 µM

// query EC50 value for entry Cc1cn([C@H]2C[C@H](N=[N+]=[N-])[C@@H](COP(=O)(OCCSC(=O)C(C)(C)C)Oc3ccc(C[C@H]4COC(C)(C)N4C(=O)OC(C)(C)C)cc3)O2)c(=O)[nH]c1=O (some centres undefined)
9 µM

What about Cc1cn([C@H]2C[C@H](N=[N+]=[N-])[C@@H](COP(=O)(OCCSC(=O)C(C)(C)C)Oc3ccc(C[C@@H](CO)NC(=O)OC(C)(C)C)cc3)O2)c(=O)[nH]c1=O (some centres undefined) ?
4 µM
